# normalized RNA/DNA level with ligand (log10) values compiled below
B1: library; a variant is named by its letters at N, in order (parent)
chain: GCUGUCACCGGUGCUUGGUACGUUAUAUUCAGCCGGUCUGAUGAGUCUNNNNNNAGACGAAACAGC

variants of: B1; experiment: normalized RNA/DNA level with ligand (relative to sTRSVctl = 100) (log10 (% of sTRSVctl)); HEK293T overexpressing SLC46A1; ligand concentration (+) RNA-Seq: 6 mM; higher = less ribozyme self-cleavage, higher mRNA level; conditions: with (6R,S)-folinic acid; ligand present: yes
The response must contain the number and no unit.

Check out these entries, answers already filled in.
1) CCAGAG = 2.01
2) GUGACU = 2.04
3) CCUCUU = 2.02
4) UUUCAG = 2.01

IN: For the variant shown here, `UGAGCC` , give the reported normalized RNA/DNA level with ligand (log10).
OUT: 2.04

IN: For the variant shown here, `GGCGUC` , give the reported normalized RNA/DNA level with ligand (log10).
OUT: 2.01

IN: For the variant shown here, `UGGCAA` , give the reported normalized RNA/DNA level with ligand (log10).
OUT: 2.01

IN: For the variant shown here, `UGAUCG` , give the reported normalized RNA/DNA level with ligand (log10).
OUT: 1.99

IN: For the variant shown here, `AUUUGG` , give the reported normalized RNA/DNA level with ligand (log10).
OUT: 1.96

IN: For the variant shown here, `CGACCC` , give the reported normalized RNA/DNA level with ligand (log10).
OUT: 2.02

IN: For the variant shown here, `CGCCUG` , give the reported normalized RNA/DNA level with ligand (log10).
OUT: 2.06

IN: For the variant shown here, `GGAUGG` , give the reported normalized RNA/DNA level with ligand (log10).
OUT: 2.02

IN: For the variant shown here, `ACCGCU` , give the reported normalized RNA/DNA level with ligand (log10).
OUT: 2.08

IN: For the variant shown here, `UCGCUU` , give the reported normalized RNA/DNA level with ligand (log10).
OUT: 2.01

IN: For the variant shown here, `UCCUGG` , give the reported normalized RNA/DNA level with ligand (log10).
OUT: 2.04

IN: For the variant shown here, `UAUUAC` , give the reported normalized RNA/DNA level with ligand (log10).
OUT: 2

IN: For the variant shown here, `CGUAGC` , give the reported normalized RNA/DNA level with ligand (log10).
OUT: 2.03

IN: For the variant shown here, `UGGCUG` , give the reported normalized RNA/DNA level with ligand (log10).
OUT: 2.09

IN: For the variant shown here, `AGCGCU` , give the reported normalized RNA/DNA level with ligand (log10).
OUT: 2.01

IN: For the variant shown here, `UAUGCU` , give the reported normalized RNA/DNA level with ligand (log10).
OUT: 2.04

IN: For the variant shown here, `GGGAUA` , give the reported normalized RNA/DNA level with ligand (log10).
OUT: 2.03

IN: For the variant shown here, `CAGUCU` , give the reported normalized RNA/DNA level with ligand (log10).
OUT: 2.03

IN: For the variant shown here, `CUUUAU` , give the reported normalized RNA/DNA level with ligand (log10).
OUT: 2

IN: For the variant shown here, `CUAUGU` , give the reported normalized RNA/DNA level with ligand (log10).
OUT: 2.02

IN: For the variant shown here, `GUUUUC` , give the reported normalized RNA/DNA level with ligand (log10).
OUT: 2

IN: For the variant shown here, `ACUGCA` , give the reported normalized RNA/DNA level with ligand (log10).
OUT: 2.05

IN: For the variant shown here, `CUGUAU` , give the reported normalized RNA/DNA level with ligand (log10).
OUT: 2

IN: For the variant shown here, `UAGCAU` , give the reported normalized RNA/DNA level with ligand (log10).
OUT: 2
